# target of assay: hGYS1 enzyme (recombinant hGYS1/GN1 protein) (Homo sapiens (Human), UniProt P13807)
# Sequence (P13807 whole entry): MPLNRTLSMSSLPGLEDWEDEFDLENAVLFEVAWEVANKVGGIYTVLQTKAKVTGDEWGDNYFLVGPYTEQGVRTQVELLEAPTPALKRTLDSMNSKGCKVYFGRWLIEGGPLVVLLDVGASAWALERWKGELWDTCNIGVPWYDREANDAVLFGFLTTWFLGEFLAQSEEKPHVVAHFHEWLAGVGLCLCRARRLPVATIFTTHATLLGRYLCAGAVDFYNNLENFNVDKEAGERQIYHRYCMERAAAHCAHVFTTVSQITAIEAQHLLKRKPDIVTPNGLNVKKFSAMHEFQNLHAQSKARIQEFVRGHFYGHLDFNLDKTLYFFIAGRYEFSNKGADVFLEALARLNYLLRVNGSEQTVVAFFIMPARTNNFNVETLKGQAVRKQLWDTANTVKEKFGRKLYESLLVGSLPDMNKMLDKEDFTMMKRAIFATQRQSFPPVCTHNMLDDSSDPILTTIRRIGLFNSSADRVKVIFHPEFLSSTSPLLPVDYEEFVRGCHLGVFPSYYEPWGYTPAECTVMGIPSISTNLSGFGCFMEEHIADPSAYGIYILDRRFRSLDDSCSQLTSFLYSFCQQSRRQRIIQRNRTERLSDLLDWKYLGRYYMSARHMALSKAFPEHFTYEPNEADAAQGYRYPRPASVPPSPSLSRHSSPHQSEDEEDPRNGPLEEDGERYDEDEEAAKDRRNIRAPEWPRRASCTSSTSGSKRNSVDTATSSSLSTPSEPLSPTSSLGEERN
# Sequence (P46976 whole entry partner): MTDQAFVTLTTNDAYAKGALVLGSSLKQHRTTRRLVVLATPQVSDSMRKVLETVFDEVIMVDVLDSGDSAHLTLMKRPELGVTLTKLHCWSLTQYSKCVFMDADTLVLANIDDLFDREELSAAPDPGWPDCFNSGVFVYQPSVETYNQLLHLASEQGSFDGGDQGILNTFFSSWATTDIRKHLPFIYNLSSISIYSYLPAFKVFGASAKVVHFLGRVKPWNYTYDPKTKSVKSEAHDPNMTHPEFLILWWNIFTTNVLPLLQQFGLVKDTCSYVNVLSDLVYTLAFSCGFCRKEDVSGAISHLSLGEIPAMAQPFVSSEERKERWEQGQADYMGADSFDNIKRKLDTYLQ
# test summary: GYS1 coupled enzyme assay (PK/LDH)
# Assay type: biochemical
# run parameters: hGYS1/GN1 50 nM, UDP-Glucose 0.8 mM, G6P 1 mM; geometric mean of at least 2 runs
measured quantity: IC50 (nM)

Solved cases below.
{"compound": "CC1(c2ccc([C@@H](NC(=O)[C@@H]3C[C@@H](F)CN3C(=O)COC(=O)N3CCN(CC4CC4)CC3)c3ccccc3)cc2F)CC1", "value measured": 104}
{"compound": "Cc1cc(C)n(CCC(=O)N2C[C@H](F)C[C@H]2C(=O)N[C@@H](c2ccccc2)c2ccc(C(C)C)cc2)n1", "value measured": 186}
{"compound": "CC1(c2ccc([C@@H](NC(=O)[C@@H]3C[C@@H](F)CN3C(=O)Cn3c(=O)[nH]c4ccccc43)c3ccccc3)cc2F)CC1", "value measured": 82}

I. O=C(N[C@@H](c1ccccc1)c1ccc(C2CC2)c(F)c1)[C@@H]1C[C@@H](F)CN1C(=O)CNC(=O)N1CC(F)(F)C1
II. O=C(N[C@@H](c1ccccc1)c1ccc(C2CC2)c(F)n1)[C@@H]1C[C@@H](F)CN1C(=O)CNC(=O)N1CC(F)(F)C1
III. CC(=O)N1CCC[C@H](C(=O)N2C[C@H](F)C[C@H]2C(=O)N[C@@H](c2ccccc2)c2ccc(C(C)C)cc2)C1
IV. CC(=O)N1CCC(C(C)C(=O)N2C[C@H](F)C[C@H]2C(=O)N[C@@H](c2ccccc2)c2ccc(C(C)C)cc2)CC1 (stereo partly shown)
Input: List items by IC50 in falling order. Give your ranking as a list of the labels in the requested order.
Output: III, IV, I, II

Every entry's value here was drawn from patent US11814367B2.
